Tested on: PRKACA-PRKAR2A interaction (SmBiT-PRKACA / LgBiT-PRKAR2A), protein kinase A
Parameters: NanoLuc complementation counter-screen in cell extract, PRKACA with PRKAR2A, loss of luminescence, detects NanoLuc interference
Details: counter-screen for NanoLuc interference; 0.5 h, 20 µM; inhibitor
Catalogue of molecules with associated Inh (PKA)
Numbers only; they are read as %.

molecule=COc1ccc(C(=O)N2CCCC2=O)cc1 quantity="Inh (PKA)" measured_result=4.422
molecule=Fc1ccccc1-c1nc2ccn(Cc3ccc(-c4ccc(C(F)(F)F)cc4C(F)(F)F)nn3)cc-2n1 quantity="Inh (PKA)" measured_result=1.649
molecule=C=CC(=O)Nc1cccc(Sc2nc(Nc3ccc(N4CCN(C)CC4)cc3)ncc2Cl)c1 quantity="Inh (PKA)" measured_result=37.33
molecule=CN1CCc2cc(Nc3ncc(C4CC4)c(NCCCNC(=O)C4CCC4)n3)ccc2C1 quantity="Inh (PKA)" measured_result=22
molecule=COC(=O)Nc1nc2cc(C(=O)c3ccccc3)ccc2[nH]1 quantity="Inh (PKA)" measured_result=8.731

Req: Any idea what its Inh (PKA) is? The molecule is O=C(NCCCNc1nc(Nc2cccc(NC(=O)N3CCCC3)c2)ncc1I)c1cccs1
Resp: 37.99

Req: # lookup: Inh (PKA) of COC(=O)C1=C(C#N)NC(C)=C(C(=O)OC(C)C)C1c1cccc([N+](=O)[O-])c1 (stereo not drawn)
Resp: 88.81

====

Measured Inh (PKA), listed per entry.
Test system: PRKACA-PRKAR2A interaction (SmBiT-PRKACA / LgBiT-PRKAR2A), protein kinase A
Parameters: NanoLuc complementation counter-screen in cell extract, PRKACA with PRKAR2A, loss of luminescence, detects NanoLuc interference
Conditions: counter-screen for NanoLuc interference; 0.5 h, 20 µM; inhibitor
Structures can show the parent of a compound that is named as a salt.
Respond numerically; units are % and should not be typed.

Record excerpt, results attached:
molecule="Cc1cccc(C(C)c2c[nH]cn2)c1C (centres unmarked) [UM0142219:01, Medetomidine HCl]" measured_result=7.933
molecule=C=CC(=O)Nc1cc(-n2c(=O)ccc3cnc4ccc(-c5ccc(NS(C)(=O)=O)cc5)cc4c32)ccc1C measured_result=6.521
molecule=COc1ccc([C@@H]2CC(=O)c3c(O)cc(O)cc3O2)cc1O measured_result=3.061
molecule=C=CC(=O)Nc1cc(Nc2nccc(-c3cn(C)c4ccccc34)n2)c(OC)cc1N(C)CCN(C)C measured_result=6.598
molecule="CC1(C)CNc2cc(NC(=O)c3cccnc3NCc3ccncc3)ccc21 [UM0141862:01, Motesanib Diphosphate (AMG-706)]" measured_result=38.44
molecule=Cn1ccnc1S measured_result=3.033
molecule="CC(C)n1c(/C=C/[C@@H](O)C[C@@H](O)CC(=O)O)c(-c2ccc(F)cc2)c2ccccc21 [UM0141809:01, Fluvastatin Sodium]" measured_result=14.88
molecule=CN1CC(=O)N2[C@H](c3ccc4c(c3)OCO4)c3[nH]c4ccccc4c3C[C@@H]2C1=O measured_result=5.88
molecule="CC[N+](CC)(CC)CCOc1cccc(OCC[N+](CC)(CC)CC)c1OCC[N+](CC)(CC)CC [UM0118287:03, Gallamine Triethiodide]" measured_result=0.3342
molecule="COc1cc2ncnc(Nc3cccc(Br)c3)c2cc1OC [UM0141943:01, PD153035 hydrochloride]" measured_result=18.98

Then this molecule:
Req: Find the recorded Inh (PKA) belonging to C[C@H](CCC(=O)O)[C@H]1CC[C@H]2[C@@H]3CC[C@@H]4C[C@H](O)CC[C@]4(C)[C@H]3C[C@H](O)[C@]12C and report it.
Resp: 5.283
